Cited source for all entries: patent US8852554B2

- testedSystem: Rat recombinant PDE10A (rPDE10A) (Rattus norvegicus, UniProt Q9QYJ6)
- assayOverview: rat PDE10A2-cAMP inhibition, in vitro SPA assay
- conditionContext: 60 nM cAMP substrate
pIC50: −log10 of the molar value.
Cut-off 8 on pIC50, inclusive. At or above means rule met; below means rule not met.

FCCOc1cccnc1COc1ccc(-c2nn(CCF)cc2-c2ccncc2)cc1; rule met
FCCn1cc(-c2ccncc2)c(-c2ccc(OCc3ccc(C4CC4)cn3)cc2)n1; rule not met
FCCOc1ccc(COc2ccc(-c3nn(CC(F)(F)F)cc3-c3ccncc3)cc2)nc1; rule not met
COc1cccnc1COc1ccc(-c2nn(CC(F)(F)F)cc2-c2ccncc2)cc1; rule met
COc1ccc(Br)c(COc2ccc(-c3nn(CCF)cc3-c3ccncc3)cc2)n1; rule not met

Now take the following compound into account.
Exercise: Threshold query (pIC50 >= 8) on "FCCn1cc(-c2ccncc2)c(-c2ccc(OCc3cccc(C(F)(F)F)n3)cc2)n1"
Solution: rule not met

----------
Let's look at some compounds and their measured pIC50.
- testedSystem: Rat recombinant PDE10A (rPDE10A) (Rattus norvegicus, UniProt Q9QYJ6)
- Sequence (Q9QYJ6 1-794): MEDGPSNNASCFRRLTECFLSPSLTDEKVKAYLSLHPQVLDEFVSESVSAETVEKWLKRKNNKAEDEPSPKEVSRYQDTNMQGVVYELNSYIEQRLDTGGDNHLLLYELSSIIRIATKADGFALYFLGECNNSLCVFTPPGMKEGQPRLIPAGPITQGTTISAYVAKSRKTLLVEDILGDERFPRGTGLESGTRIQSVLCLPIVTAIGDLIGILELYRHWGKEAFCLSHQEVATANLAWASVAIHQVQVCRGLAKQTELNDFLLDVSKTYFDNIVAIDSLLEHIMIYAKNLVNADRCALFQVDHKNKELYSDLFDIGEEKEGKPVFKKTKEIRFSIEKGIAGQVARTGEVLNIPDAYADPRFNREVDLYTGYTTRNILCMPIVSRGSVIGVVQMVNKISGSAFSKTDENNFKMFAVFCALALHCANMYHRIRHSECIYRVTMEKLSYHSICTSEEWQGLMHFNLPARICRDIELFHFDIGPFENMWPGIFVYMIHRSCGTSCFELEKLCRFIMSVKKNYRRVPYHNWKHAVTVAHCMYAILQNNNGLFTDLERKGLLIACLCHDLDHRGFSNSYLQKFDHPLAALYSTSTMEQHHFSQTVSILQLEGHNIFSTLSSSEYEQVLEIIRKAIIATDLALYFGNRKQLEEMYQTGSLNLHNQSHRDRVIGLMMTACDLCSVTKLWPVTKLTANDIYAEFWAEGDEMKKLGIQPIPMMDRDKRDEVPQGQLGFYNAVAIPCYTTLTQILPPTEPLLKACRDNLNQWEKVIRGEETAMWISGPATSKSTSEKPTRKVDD
- assayOverview: rat PDE10A2-cAMP inhibition, in vitro SPA assay
- conditionContext: 60 nM cAMP substrate
Recall that pIC50 is obtained by taking minus log10 of the concentration measured in molar.

Cc1cnc(COc2ccc(-c3nn(CCF)cc3-c3ccncc3)cc2)c(C)c1; 8.79

Continue with the compound presented below.
Exercise: Return reported pIC50; argument: "FCCCn1cc(-c2ccncc2)c(-c2ccc(OCc3ncccc3OCCF)cc2)n1"
Solution: 7.86

----------
Structures can show the parent of a compound that is named as a salt.
observedProperty: melting point (°C)
Express the result in °C but write the number alone.

Past entries and their recorded results:
FCCn1cc(-c2ccncc2)c(-c2ccc(OCc3cccc(Br)n3)cc2)n1 (as salt: succinate); 108.78
FCCOc1cccnc1COc1ccc(-c2nn(CC(F)(F)F)cc2-c2ccncc2)cc1 (as salt: succinate); 140.72
FCCn1cc(-c2ccncc2)c(-c2ccc(OCc3cccc(C4CC4)n3)cc2)n1 (as salt: succinate); 91.25

Continue with the compound presented below.
Exercise: Return reported melting point; argument: "FCCn1cc(-c2ccncc2)c(-c2ccc(OCc3ccc(C(F)(F)F)cn3)cc2)n1"
Solution: 133.23

----------
- testedSystem: Rat recombinant PDE10A (rPDE10A) (Rattus norvegicus)
- Sequence (Q9QYJ6 1-794): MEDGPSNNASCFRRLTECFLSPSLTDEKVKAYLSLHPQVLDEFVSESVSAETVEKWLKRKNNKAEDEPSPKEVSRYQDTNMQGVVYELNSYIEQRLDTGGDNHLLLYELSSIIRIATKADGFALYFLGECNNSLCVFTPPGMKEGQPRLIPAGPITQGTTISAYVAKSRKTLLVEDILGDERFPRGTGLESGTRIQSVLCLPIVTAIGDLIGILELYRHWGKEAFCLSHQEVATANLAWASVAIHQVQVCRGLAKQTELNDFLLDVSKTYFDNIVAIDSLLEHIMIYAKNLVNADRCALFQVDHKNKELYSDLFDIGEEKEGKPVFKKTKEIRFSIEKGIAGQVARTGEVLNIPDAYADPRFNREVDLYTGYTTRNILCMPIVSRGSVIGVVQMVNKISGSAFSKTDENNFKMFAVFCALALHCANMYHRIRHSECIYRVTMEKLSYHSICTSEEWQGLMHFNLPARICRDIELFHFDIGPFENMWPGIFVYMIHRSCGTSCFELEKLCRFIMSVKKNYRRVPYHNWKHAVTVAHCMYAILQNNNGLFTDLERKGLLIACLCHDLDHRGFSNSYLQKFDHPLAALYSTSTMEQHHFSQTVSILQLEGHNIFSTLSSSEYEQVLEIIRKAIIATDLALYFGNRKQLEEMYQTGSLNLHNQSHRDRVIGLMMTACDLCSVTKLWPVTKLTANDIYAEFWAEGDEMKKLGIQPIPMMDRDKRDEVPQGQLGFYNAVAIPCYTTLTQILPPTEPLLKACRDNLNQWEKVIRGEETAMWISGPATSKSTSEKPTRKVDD
- assayOverview: rat PDE10A2-cAMP inhibition, in vitro SPA assay
- conditionContext: 60 nM cAMP substrate
observedProperty: IC50 (nM)
Express the result in nM but write the number alone.

Exercise: Return reported IC50; argument: CCOc1cccc(COc2ccc(-c3nn(CCF)cc3-c3ccncc3)cc2)n1 [Compound B25]
Solution: 20.9

Exercise: Return reported IC50; argument: FCCn1cc(-c2ccncc2)c(-c2ccc(OCc3ccc(C(F)(F)F)cn3)cc2)n1 [Compound B22]
Solution: 91.2

Exercise: Return reported IC50; argument: COc1ccc(COc2ccc(-c3nn(CC(F)(F)F)cc3-c3ccncc3)cc2)nc1 [Compound B5]
Solution: 5.13

Exercise: Return reported IC50; argument: N#Cc1cccc(COc2ccc(-c3nn(CCF)cc3-c3ccncc3)cc2)n1 [Compound B26]
Solution: 33.1

Exercise: Return reported IC50; argument: Cc1cnc(COc2ccc(-c3nn(CCF)cc3-c3ccncc3)cc2)c(C)c1C [Compound B28]
Solution: 4.37

----------
Where a name gives a salt, the structure may show the parent alone.
observedProperty: melting point (°C)
Express the result in °C but write the number alone.

Past entries and their recorded results:
FCCOc1cccnc1COc1ccc(-c2nn(CCF)cc2-c2ccncc2)cc1 (as salt: succinate); 114.18
COc1ccc(COc2ccc(-c3nn(CCF)cc3-c3ccncc3)cc2)nc1; 117.52
FCCCn1cc(-c2ccncc2)c(-c2ccc(OCc3ncccc3OCCF)cc2)n1 (as salt: succinate); 118.38

Exercise: Return reported melting point; argument: COc1ccc(COc2ccc(-c3nn(CCCF)cc3-c3ccncc3)cc2)nc1 (as salt: succinate)
Solution: 126.64

----------
Structures can show the parent of a compound that is named as a salt.
Let's look at some molecules and their measured melting point.
Express the result in °C but write the number alone.

COc1cccnc1COc1ccc(-c2nn(CCF)cc2-c2ccncc2)cc1 (as salt: succinate); 178.95
Cc1cccc(COc2ccc(-c3nn(CCF)cc3-c3ccncc3)cc2)n1 (as salt: hydrochloride); 227.22
COc1cccnc1COc1ccc(-c2nn(CC(F)(F)F)cc2-c2ccncc2)cc1; 147
COc1cccnc1COc1ccc(-c2nn(CCCF)cc2-c2ccncc2)cc1; 165.9
N#Cc1cccc(COc2ccc(-c3nn(CCF)cc3-c3ccncc3)cc2)n1; 148.7

Exercise: Return reported melting point; argument: "COc1ccc(COc2ccc(-c3nn(CC(F)(F)F)cc3-c3ccncc3)cc2)nc1"
Solution: 136.3

Exercise: Return reported melting point; argument: Cc1cnc(COc2ccc(-c3nn(CCF)cc3-c3ccncc3)cc2)c(C)c1C (as salt: succinate)
Solution: 197.08

----------
Structures can show the parent of a compound that is named as a salt.
observedProperty: melting point (°C)
Express the result in °C but write the number alone.

Past entries and their recorded results:
COc1cccc(COc2ccc(-c3nn(CCF)cc3-c3ccncc3)cc2)n1 (as salt: succinate); 113.25
FCCn1cc(-c2ccncc2)c(-c2ccc(OCc3ccc(Br)cn3)cc2)n1; 125.8

Exercise: Return reported melting point; argument: "COc1ccc(Br)c(COc2ccc(-c3nn(CCF)cc3-c3ccncc3)cc2)n1"
Solution: 119.2

Exercise: Return reported melting point; argument: CCOc1cccc(COc2ccc(-c3nn(CCF)cc3-c3ccncc3)cc2)n1 (as salt: succinate)
Solution: 119.65
